Values were extracted from ChEMBL document CHEMBL4393722.

Assay: MRT in Sprague-Dawley rat plasma at 25 mg/kg, iv by HPLC analysis
Format: ADME, organism-based
MEASURE_NAME: MRT (h)
Report the figure in h without appending any unit label.

### Prompt Look at this compound and give its reported MRT. CCN(C)C(=O)Oc1cc(C(C)N(C)C)cc2cccnc12 (stereo unspecified)
### Response 1.53

###

Assay: AUC (0 to t) in Sprague-Dawley rat plasma at 25 mg/kg, iv by HPLC analysis
Format: ADME, organism-based
MEASURE_NAME: AUC(0-t)
Please provide the amount together with its unit, number first.

### Prompt Give the measured AUC(0-t) of CCN(C)C(=O)Oc1cc(C(C)N(C)C)cc2cccnc12 (stereo unspecified) .
### Response 7410 ng·h/mL

###

Test: AUC (0 to infinity) in Sprague-Dawley rat blood dialysis at 25 mg/kg, iv by HPLC analysis
Type: ADME, organism-based
Design: dose 25 mg/kg, route intravenous, time infinity
Conditions: blood dialysate
MEASURE_NAME: AUC(0-inf) (µg·h/mL)
The reply should contain only the number, in µg·h/mL.

### Prompt So what does the record say about AUC(0-inf) for CCN(C)C(=O)Oc1cc(C(C)N(C)C)cc2cccnc12 (stereo unspecified) ?
### Response 2.45

###

Biological target: UniProt Q12809
Assay: Inhibition of human ERG expressed in CHO cells incubated for 1 min at -80 mV holding potential by manual patch clamp assay
MEASURE_NAME: IC50

### Prompt Please look up its IC50: CCN(C)C(=O)Oc1cc(C(C)N(C)C)cc2cccnc12 (stereo unspecified)
### Response > 30 µM

###

Test: Ratio of drug level in Sprague-Dawley rat brain to plasma at 25 mg/kg, iv by HPLC analysis
Assay type: ADME, organism-based
Conditions: read-out: BPR
MEASURE_NAME: Kp
Hey, just send me the number, nothing else.

### Prompt Fill blank: measured Kp of the compound CCN(C)C(=O)Oc1cc(C(C)N(C)C)cc2cccnc12 (stereo unspecified) is ____.
### Response 0.524

###

Experiment: AUC (0 to t) in Sprague-Dawley rat brain at 25 mg/kg, iv by HPLC analysis
Assay type: ADME, organism-based
MEASURE_NAME: AUC(0-t)
Kindly format the answer as number then unit.

### Prompt Which AUC(0-t) reading was recorded for the compound CCN(C)C(=O)Oc1cc(C(C)N(C)C)cc2cccnc12 (stereo unspecified) ?
### Response 1260 ng·h/mL

###

Test: MRT in Sprague-Dawley rat brain at 25 mg/kg, iv by HPLC analysis
Type: ADME, organism-based
MEASURE_NAME: MRT (min)
// units = min; emit number, no label

### Prompt # query: MRT of entry CCN(C)C(=O)Oc1cc(C(C)N(C)C)cc2cccnc12 (stereo unspecified)
### Response 56.8

###

Test: AUC (0 to infinity) in Sprague-Dawley rat plasma at 25 mg/kg, iv by HPLC analysis
Type: ADME, organism-based
Set-up: dose 25 mg/kg, time infinity, route intravenous
MEASURE_NAME: AUC(0-inf) (ng·h/mL)
Unit ng·h/mL implied. Number only.

### Prompt Request the reported AUC(0-inf) associated with CCN(C)C(=O)Oc1cc(C(C)N(C)C)cc2cccnc12 (stereo unspecified)
### Response 7460

###

Molecular target: hERG (KCNH2) (Homo sapiens, UniProt Q12809)
Sequence (Q12809 whole entry): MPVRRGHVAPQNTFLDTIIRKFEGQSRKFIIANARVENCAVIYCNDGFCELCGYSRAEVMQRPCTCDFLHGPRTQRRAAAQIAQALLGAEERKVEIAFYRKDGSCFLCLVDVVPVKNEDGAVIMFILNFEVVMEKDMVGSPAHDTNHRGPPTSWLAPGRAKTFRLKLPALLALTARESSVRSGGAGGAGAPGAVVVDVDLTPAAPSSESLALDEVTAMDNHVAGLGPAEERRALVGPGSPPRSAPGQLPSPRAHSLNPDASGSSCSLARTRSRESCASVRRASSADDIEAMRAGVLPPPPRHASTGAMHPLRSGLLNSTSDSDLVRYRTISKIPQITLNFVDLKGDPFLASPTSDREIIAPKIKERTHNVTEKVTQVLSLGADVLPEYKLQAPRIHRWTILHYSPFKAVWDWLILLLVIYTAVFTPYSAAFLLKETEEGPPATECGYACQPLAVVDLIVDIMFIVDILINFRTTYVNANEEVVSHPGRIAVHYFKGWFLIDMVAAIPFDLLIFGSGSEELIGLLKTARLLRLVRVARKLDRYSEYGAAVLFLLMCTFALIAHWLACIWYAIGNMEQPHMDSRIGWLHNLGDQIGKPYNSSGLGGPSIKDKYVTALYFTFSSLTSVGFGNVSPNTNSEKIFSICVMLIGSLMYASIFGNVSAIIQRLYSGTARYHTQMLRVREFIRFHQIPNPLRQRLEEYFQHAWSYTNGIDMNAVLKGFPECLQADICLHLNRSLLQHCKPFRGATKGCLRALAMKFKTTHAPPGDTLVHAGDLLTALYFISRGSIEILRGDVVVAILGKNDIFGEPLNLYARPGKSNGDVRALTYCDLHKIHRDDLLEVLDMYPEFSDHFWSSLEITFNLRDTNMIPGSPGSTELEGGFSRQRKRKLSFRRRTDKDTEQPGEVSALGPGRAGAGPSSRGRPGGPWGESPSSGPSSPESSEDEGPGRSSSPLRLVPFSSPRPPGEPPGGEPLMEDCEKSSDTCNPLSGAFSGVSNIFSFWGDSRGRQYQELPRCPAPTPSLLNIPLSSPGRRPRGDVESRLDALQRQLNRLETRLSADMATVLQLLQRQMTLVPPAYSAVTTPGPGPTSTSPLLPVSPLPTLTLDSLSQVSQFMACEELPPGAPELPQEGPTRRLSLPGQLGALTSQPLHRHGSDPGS
Assay: Inhibition of human ERG expressed in CHO cells at 0.1 uM incubated for 1 min at -80 mV holding potential by manual patch clamp assay relative to control
Type: cell-based
Settings: CHO cells expressing human ERG
MEASURE_NAME: inhibition at 1 min, 0.1 µM
# do not omit the unit; it follows the number

### Prompt Fill in the blank: the reported inhibition at 1 min, 0.1 µM of COc1cc(N)c(Cl)cc1C(=O)N[C@H]1CCN(CCCOc2ccc(F)cc2)C[C@H]1OC [REL-CISAPRIDE] is ____.
### Response 89%
